targetOrSystem: High affinity nerve growth factor receptor (Homo sapiens)
protocolText: Inhibition of human recombinant TrkA using ATP and 5FAM tagged TrkA peptide substrate incubated for 60 mins by microfluidics assay
Sequence (P04629 whole entry): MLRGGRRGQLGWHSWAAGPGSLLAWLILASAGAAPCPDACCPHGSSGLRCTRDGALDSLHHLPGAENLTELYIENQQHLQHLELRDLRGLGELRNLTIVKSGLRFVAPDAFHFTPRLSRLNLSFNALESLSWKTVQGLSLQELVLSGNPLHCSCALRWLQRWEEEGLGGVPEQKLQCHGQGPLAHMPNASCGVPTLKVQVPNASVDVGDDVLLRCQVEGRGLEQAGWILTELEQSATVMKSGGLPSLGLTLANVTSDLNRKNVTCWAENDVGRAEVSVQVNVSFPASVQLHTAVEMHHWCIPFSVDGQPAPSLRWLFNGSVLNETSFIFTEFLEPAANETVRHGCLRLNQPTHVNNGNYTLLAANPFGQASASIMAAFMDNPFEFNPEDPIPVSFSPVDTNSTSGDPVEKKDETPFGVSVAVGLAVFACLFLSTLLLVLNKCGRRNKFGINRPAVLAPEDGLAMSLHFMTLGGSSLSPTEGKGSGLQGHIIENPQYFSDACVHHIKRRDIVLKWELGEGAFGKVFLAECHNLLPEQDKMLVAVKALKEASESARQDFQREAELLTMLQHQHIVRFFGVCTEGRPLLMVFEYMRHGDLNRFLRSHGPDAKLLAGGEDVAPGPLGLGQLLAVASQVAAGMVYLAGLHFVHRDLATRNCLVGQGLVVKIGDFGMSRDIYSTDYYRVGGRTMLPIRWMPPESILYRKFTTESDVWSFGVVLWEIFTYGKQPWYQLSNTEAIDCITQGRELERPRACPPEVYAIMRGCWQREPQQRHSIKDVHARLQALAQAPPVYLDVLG
pIC50: −log10 of the molar value.
recordedEndpoint: pIC50

smilesdata=COc1ccc(-c2cncc(Oc3cccc(NC(=O)Nc4cc(C(C)(C)C)on4)c3)n2)cc1 valuereported=7.33

1 = Cn1cc(-c2cncc(Oc3cccc(NC(=O)Nc4cc(C(C)(C)C)on4)c3)n2)cn1
2 = O=C(Nc1cccc(Oc2cncc(-c3ccsc3)n2)c1)Nc1cccc(C(F)(F)F)c1
3 = CC(C)c1ccc(NC(=O)Nc2cccc(Oc3cncc(-c4ccc(S(C)(=O)=O)cc4)n3)c2)cc1
input: I would appreciate it if you could sort these 3 molecules by pIC50, starting from the smallest number. Note for the reader: the ranking is given by listing the labels in the order requested.
output: 2, 3, 1

###

targetOrSystem: UniProt:P04629
protocolText: Inhibition of human recombinant TrkA at 20 uM using ATP and 5FAM tagged TrkA peptide substrate incubated for 60 mins by microfluidics assay
Sequence (P04629 33-796 limits assumed): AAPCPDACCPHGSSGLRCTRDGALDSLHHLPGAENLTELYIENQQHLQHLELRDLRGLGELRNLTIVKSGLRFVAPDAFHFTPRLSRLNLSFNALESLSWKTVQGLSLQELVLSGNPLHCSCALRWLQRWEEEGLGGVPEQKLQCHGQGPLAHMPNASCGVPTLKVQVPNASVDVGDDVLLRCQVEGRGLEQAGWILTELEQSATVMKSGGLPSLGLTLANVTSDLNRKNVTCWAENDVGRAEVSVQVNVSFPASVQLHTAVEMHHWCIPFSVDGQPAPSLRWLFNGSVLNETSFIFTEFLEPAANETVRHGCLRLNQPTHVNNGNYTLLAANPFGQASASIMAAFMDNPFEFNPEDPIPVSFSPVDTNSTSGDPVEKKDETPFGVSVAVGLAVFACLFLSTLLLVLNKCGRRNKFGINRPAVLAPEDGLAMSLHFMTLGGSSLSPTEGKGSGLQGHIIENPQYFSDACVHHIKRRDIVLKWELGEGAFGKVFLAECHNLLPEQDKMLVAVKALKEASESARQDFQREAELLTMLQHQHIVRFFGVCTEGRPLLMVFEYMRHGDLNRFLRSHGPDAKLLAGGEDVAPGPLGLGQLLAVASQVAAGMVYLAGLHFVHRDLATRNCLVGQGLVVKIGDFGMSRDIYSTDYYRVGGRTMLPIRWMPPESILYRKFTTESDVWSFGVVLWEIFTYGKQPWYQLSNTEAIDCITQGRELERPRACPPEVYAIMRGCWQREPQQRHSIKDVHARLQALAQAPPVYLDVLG
recordedEndpoint: inhibition (%)

smilesdata=Cn1cc(-c2cncc(-c3ccc(NC(=O)Nc4cc(C(C)(C)C)nn4C)cc3)n2)cn1 recordedendpoint=inhibition valuereported=99.7
smilesdata=CC(C)(C)c1ccc(NC(=O)Nc2cccc(Oc3cncc(-c4ccc(S(C)(=O)=O)cc4)n3)c2)cc1 recordedendpoint=inhibition valuereported=46.7
smilesdata=COc1ccc(-c2cncc(Oc3cccc(NC(=O)Nc4ccc(C(C)(C)C)cc4)c3)n2)cc1 recordedendpoint=inhibition valuereported=33.8
smilesdata=Nc1ccc(-c2cncc(-c3cncnc3)n2)cc1 recordedendpoint=inhibition valuereported=77
smilesdata=CC(C)(C)c1cc(NC(=O)Nc2cccc(Oc3cncc(-c4ccsc4)n3)c2)on1 recordedendpoint=inhibition valuereported=69

a = O=C(Nc1cccc(Oc2cncc(-c3ccc(F)cc3)n2)c1)Nc1cccc(C(F)(F)F)c1
b = Cn1cc(-c2cncc(Oc3cccc(NC(=O)Nc4cccc(C(F)(F)F)c4)c3)n2)cn1
input: Please state the entry with greater inhibition among a and b . Output the label that corresponds to your choice.
output: b

P = Nc1ccc(-c2cncc(-c3ccsc3)n2)cc1
Q = CC(C)(C)c1ccc(NC(=O)Nc2cccc(Oc3cncc(-c4ccsc4)n3)c2)cc1
R = Cn1cc(-c2cncc(Oc3cccc(NC(=O)Nc4cc(C(C)(C)C)on4)c3)n2)cn1
input: I would appreciate it if you could sort these 3 molecules by inhibition, starting from the smallest number. Note for the reader: the ranking is given by listing the labels in the order requested.
output: P, Q, R
(P: 17%, Q: 27.7%, R: 101%)
